Where these numbers come from: PubChem BioAssay AID2060346

Could you please report measured viability, T/C for the items listed next?
Test system: CN0375-F725-PDC multi-cell spheroids, viability;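 note: spheroids exposed to drugs for seven days; 100% = DMSO vehicle control wells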
assayMethodText: Anticancer human tumor CN0375-F725-PDC patient-derived colon carcinoma cell line growth inhibition [TAK]
conditionDetails: second compound 30 µM; first compound 0.00316 µM; active compounds read low
Kindly provide the numeric value in % only, without the unit symbol.

stdin: Query for CN0375-F725-PDC multi-cell spheroids, viability: what viability, T/C does the record show for CC(C)CC(NC(=O)CNC(=O)c1cc(Cl)ccc1Cl)B1OC(=O)CC(CC(=O)O)(C(=O)O)O1 (centres undefined) + CC(C)NCC(C(=O)N1CCN(c2ncnc3c2C(C)CC3O)CC1)c1ccc(Cl)cc1 ?
stdout: 88.2

stdin: And what about the molecule COC1CC2CCC(C)C(O)(O2)C(=O)C(=O)N2CCCCC2C(=O)OC(C(C)CC2CCC(OCCO)C(OC)C2)CC(=O)C(C)C=C(C)C(O)C(OC)C(=O)C(C)CC(C)C=CC=CC=C1C (centres undefined) + CC(C)NCC(C(=O)N1CCN(c2ncnc3c2C(C)CC3O)CC1)c1ccc(Cl)cc1 ?
stdout: 72.2

stdin: What do you get for COc1c(OCCCN2CCOCC2)ccc2c3n(c(=NC(=O)c4cnc(N)nc4)nc12)CCN3 + CC(C)NCC(C(=O)N1CCN(c2ncnc3c2C(C)CC3O)CC1)c1ccc(Cl)cc1 ?
stdout: 76.2

stdin: Now give it for CC(C)CC(NC(=O)C(Cc1ccccc1)NC(=O)c1cnccn1)B(O)O (centres undefined) + CC(C)NCC(C(=O)N1CCN(c2ncnc3c2C(C)CC3O)CC1)c1ccc(Cl)cc1 too.
stdout: 42.9
